Recorded values, source the Human Domainome abundance scans (Beltran et al. 2025).

B1: 1-phosphatidylinositol 4,5-bisphosphate phosphodiesterase gamma-2, residues 772 to 827; numbered along this chain, P16885 (parent)
chain: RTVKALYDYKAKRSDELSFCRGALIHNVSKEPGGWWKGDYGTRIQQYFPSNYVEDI

- Variants of: B1
- METHOD: abundance fitness (aPCA) (normalised: wild type 0, dead -1); higher = more abundant; growth selection in yeast, the domain comes from the species named
- MEASUREMENT CONTEXT: Homo sapiens
READOUT KIND: abundance fitness

Sample answers from the record:
mutant=R13V readout_kind="abundance fitness" test_value=-0.47
mutant=C20T readout_kind="abundance fitness" test_value=-0.012
mutant=Y40R readout_kind="abundance fitness" test_value=-0.498
mutant=Y47S readout_kind="abundance fitness" test_value=-0.293
mutant=I44C readout_kind="abundance fitness" test_value=-0.074

Please look at the items below and tell me abundance fitness for each one, in order.
1. E54V
2. G33Q
3. K12F
4. G41I
5. K37C
6. D8Y

Result:
[-0.244, -0.556, -0.63, -0.566, -0.318, -0.576]

Record abundance fitness per entry; entries follow.
1. R1E
2. T42S
3. Y47V

Result:
1: -0.056; 2: 0.054; 3: -0.34

Please give abundance fitness for each item listed below.
1. D39S
2. T2C
3. K10D
4. D15F
5. H26V

Result:
1: -0.825; 2: -0.344; 3: 0.052; 4: -0.124; 5: -0.035

Hello, I would appreciate it if you could give abundance fitness for each entry below.
1. A5M
2. K37G
3. K37W

Result:
[-0.942, -0.887, -0.908]
